Target: PLK1 (Homo sapiens)
Sequence (P53350 whole entry): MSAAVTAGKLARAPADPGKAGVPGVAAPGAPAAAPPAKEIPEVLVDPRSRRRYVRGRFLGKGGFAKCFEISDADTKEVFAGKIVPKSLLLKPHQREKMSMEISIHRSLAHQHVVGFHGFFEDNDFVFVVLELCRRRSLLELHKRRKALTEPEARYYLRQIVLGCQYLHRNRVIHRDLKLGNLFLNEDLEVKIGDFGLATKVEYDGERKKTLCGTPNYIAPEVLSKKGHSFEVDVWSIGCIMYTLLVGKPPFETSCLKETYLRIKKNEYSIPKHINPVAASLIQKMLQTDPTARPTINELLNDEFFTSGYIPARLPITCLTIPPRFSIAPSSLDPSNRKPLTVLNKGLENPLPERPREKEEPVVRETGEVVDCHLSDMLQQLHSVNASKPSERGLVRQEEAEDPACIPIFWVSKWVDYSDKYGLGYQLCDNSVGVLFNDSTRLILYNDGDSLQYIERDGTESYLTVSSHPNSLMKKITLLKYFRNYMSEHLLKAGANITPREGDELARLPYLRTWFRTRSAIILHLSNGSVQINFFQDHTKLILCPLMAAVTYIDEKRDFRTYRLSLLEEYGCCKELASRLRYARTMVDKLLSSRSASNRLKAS
Assay: PLK1 kinase ADP-Glo assay (in vitro kinase activity)
Type: biochemical
Set-up: 2 μl of PLK1 enzyme (15 ng/well)
Conditions: IC50 with 99% confidence interval; read-out: 99% CI of IC50 against PLK1
Description: In vitro kinase activity assays were conducted through ADP-Glo assay services provided by Conradbio (Conradbio, China). The protocol for the PLK1 assay is described as follows (protocols for other kinases are very similar). Enzyme, substrate, ATP, and compounds were diluted in a Kinase Buffer composed of 40 mM Tris (pH 7.5), 20 mM MgCl2, 0.1 mg/ml BSA, and 50 μM DTT. […] Luminescence was recorded with an integration time of 0.5 s. […]
observable: IC50 (nM)

[1] COc1ccc(N2CCN(C)CC2)cc1Nc1ncc(C)c(Oc2ccccc2-n2ccnn2)n1
[2] COc1ccc(N2CCN(C)CC2)cc1Nc1ncc(C)c(Oc2cccc3cc(C(N)=O)sc23)n1
[3] COc1ccc(N2CCN(C)CC2)cc1Nc1ncc(C(F)(F)F)c(Oc2cccc3[nH]c(C(N)=O)cc23)n1
Request: Kindly order the items shown according to IC50, from the highest value down. Record the ranking as a list of labels in the requested order.
Response: 1, 3, 2
(1: 928 nM, 3: 37.6 nM, 2: 5.06 nM)
